Recorded below: IC50, system Enoyl-acyl-carrier protein reductase (Plasmodium falciparum).
Quick reminder: number only, in µM, skip the unit.

# return recorded IC50 for input `CCCCCCCCCC#CCCCCC(=O)O`
14.3

Return the recorded IC50 value; entry: `CCCCCCC#CCCCCCCCC(=O)O`
11.1

Report measured IC50; entry is `CCCCCCCCCCC#CCCCC(=O)O`
12.3

----------
Entries with reported pIC50 on Fatty acid synthase (Plasmodium falciparum, UniProt Q965D7)
Sequence (Q965D7 whole entry): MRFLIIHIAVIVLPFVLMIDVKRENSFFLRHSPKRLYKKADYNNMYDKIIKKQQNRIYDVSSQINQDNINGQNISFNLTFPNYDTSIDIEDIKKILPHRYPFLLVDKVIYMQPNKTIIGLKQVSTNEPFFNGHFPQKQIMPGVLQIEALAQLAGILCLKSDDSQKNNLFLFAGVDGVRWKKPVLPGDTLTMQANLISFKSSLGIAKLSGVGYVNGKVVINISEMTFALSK
Schema: pIC50 number; meaning minus log10 of the concentration expressed in molar units.

Item O=C(O[C@@H]1Cc2c(O)cc(O)cc2O[C@@H]1c1cc(O)c(O)c(O)c1)c1cc(O)c(O)c(O)c1 [EPIGALOCATECHIN GALLATE] : provide pIC50
7.18

Read the entry `CCCCCCCCCC#CCCCCC(=O)O` and write its reported pIC50.
4.32

Could you please provide reported pIC50 for `CCCCCCC#CCCCCCCCC(=O)O` ? Thanks!
4.31

Read the entry `CCCCCCCCCCC#CCCCC(=O)O` and write its reported pIC50.
4.26
